Target: recombinant SARS-Cov-2 M^pro (Severe acute respiratory syndrome coronavirus 2 (2019-nCoV) (SARS-CoV-2), UniProt P0DTD1)
Test: biochemical
Conditions: read-out: IC50
// IC50 lookup, one value per entry

{"chemical.structure": "O=c1[nH]cc(-c2cc(-c3cc(Cl)cc(OCc4cccc(F)c4)c3)c(=O)n(-c3cccnc3)c2)c(=O)[nH]1", "IC50": "18 to 37 nM"}

// sample `O=c1[nH]cc(-c2cc(-c3cc(Cl)cc(OCc4c(F)cccc4F)c3)c(=O)n(-c3cccnc3)c2)c(=O)[nH]1` , its IC50 was 18 to 37 nM

// sample `O=c1[nH]cc(-c2cc(-c3cc(Cl)cc(OCc4ccccc4F)c3)c(=O)n(-c3cccnc3)c2)c(=O)[nH]1` , its IC50 was 18 to 37 nM
